# Tested on: COLO-668 (Small Cell Lung Carcinoma);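 further: after 72 h of two-drug dosing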
# method: Bliss excess, mean over the matrix (fraction); higher = more synergy
Param threshold (0.01) applies to Bliss excess; output Fulfilled when value >= threshold, Not fulfilled when value < threshold.

Cc1nc(-c2cn3c(n2)-c2ccc(-c4cnn(C(C)(C)C(N)=O)c4)cc2OCC3)n(C(C)C)n1 [Taselisib] + O=C(Nc1ccc2[nH]nc(-c3ccncc3)c2c1)[C@@H]1CCN(CC(=O)N2CCN(c3ccc(-c4ncccn4)cc3)CC2)C1 [SCH772984] (first compound max 10 µM, 7x7, partner max 5 µM): Fulfilled
O=C(c1cc(Cc2n[nH]c(=O)c3ccccc23)ccc1F)N1CCN(C(=O)C2CC2)CC1 [Olaparib] + CC1(C)CCC(CN2CCN(c3ccc(C(=O)NS(=O)(=O)c4ccc(NCC5CCOCC5)c([N+](=O)[O-])c4)c(Oc4cnc5[nH]ccc5c4)c3)CC2)=C(c2ccc(Cl)cc2)C1 [Venetoclax] (first compound max 10 µM, 7x7, partner max 1 µM): Not fulfilled
CN(CCO)CC[C@H](CSc1ccccc1)Nc1ccc(S(=O)(=O)NC(=O)c2ccc(N3CCC([C@@H](O)c4ccccc4-c4ccc(Cl)cc4)CC3)cc2)cc1S(=O)(=O)C(F)(F)F [AZD4320] + CS(=O)(=O)CCNCc1ccc(-c2ccc3ncnc(Nc4ccc(OCc5cccc(F)c5)c(Cl)c4)c3c2)o1 [Lapatinib] (first compound max 1 µM, 7x7, partner max 10 µM): Fulfilled
COc1nnc2ccc(N3CCC(c4ccc(OCCN5CCN(C)C(=O)[C@H]5C)cc4)CC3)nn12 [AZD5153] + CCN(CCO)CCCOc1ccc2c(Nc3cc(CC(=O)Nc4cccc(F)c4)[nH]n3)ncnc2c1 [AZD2811] (first compound max 1 µM, 7x7, partner max 1 µM): Not fulfilled
C=CCn1c(=O)c2cnc(Nc3ccc(N4CCN(C)CC4)cc3)nc2n1-c1cccc(C(C)(C)O)n1 [AZD1775] + C1CN(CCC1(C(=O)N[C@@H](CCO)C2=CC=C(C=C2)Cl)N)C3=NC=NC4=C3C=CN4 [Capivasertib] (first compound max 3 µM, partner max 3 µM): Not fulfilled

Given CCN(CCO)CCCOc1ccc2c(Nc3cc(CC(=O)Nc4cccc(F)c4)[nH]n3)ncnc2c1 [AZD2811] + C=CCn1c(=O)c2cnc(Nc3ccc(N4CCN(C)CC4)cc3)nc2n1-c1cccc(C(C)(C)O)n1 [AZD1775] (first compound max 1 µM, partner max 1 µM) , state whether its Bliss excess is at least 0.01.
Fulfilled

Given Cc1cc2ncnn2cc1Nc1ncc2c(n1)n(C1CCOCC1)c(=O)n2C [AZD7648] + C[C@@H]1COCCN1C2=NC(=NC(=C2)C3(CC3)[S@](=N)(=O)C)C4=C5C=CNC5=NC=C4 [AZD6738] (first compound max 10 µM, 7x7, partner max 10 µM) , state whether its Bliss excess is at least 0.01.
Not fulfilled

---

# Test system: KMRC-1 (Kidney Carcinoma)
# method: combination Emax (second highest fraction inhibited in the dose matrix, 72 h); higher = more inhibition; extreme values may be limits of the assay
Listing of recorded combination Emax by entry.
I'd appreciate a reply containing only the number, no unit.

Observe how each entry below is paired with its result.
CN(C)CCCOc1ccc(-c2ccc3ncc4c(c3c2)n(C2CCOCC2)c(=O)n4C)cn1 [AZD0156] + O=C(c1cc(Cc2n[nH]c(=O)c3ccccc23)ccc1F)N1CCN(C(=O)C2CC2)CC1 [Olaparib] (first compound max 3 µM, partner max 3 µM): 0.151
CS(=O)(=O)CCNCc1ccc(-c2ccc3ncnc(Nc4ccc(OCc5cccc(F)c5)c(Cl)c4)c3c2)o1 [Lapatinib] + Cn1cnc2c(F)c(Nc3ccc(Br)cc3Cl)c(C(=O)NOCCO)cc21 [Selumetinib] (first compound max 10 µM, 7x7, partner max 10 µM): 0.696
NC1(C(=O)N[C@@H](CCO)c2ccc(Cl)cc2)CCN(c2ncnc3[nH]ccc23)CC1 [Capivasertib] + Cn1cnc2c(F)c(Nc3ccc(Br)cc3Cl)c(C(=O)NOCCO)cc21 [Selumetinib] (first compound max 10 µM, 7x7, partner max 10 µM): 0.504
C[C@@H]1COCCN1c1cc(C2([S@](C)(=N)=O)CC2)nc(-c2ccnc3[nH]ccc23)n1 [AZD6738] + O=C(c1cc(Cc2n[nH]c(=O)c3ccccc23)ccc1F)N1CCN(C(=O)C2CC2)CC1 [Olaparib] (first compound max 10 µM, 7x7, partner max 10 µM): 0.566
N#Cc1cnc(Nc2cc(NC[C@H]3CNCCO3)c(C(F)(F)F)cn2)cn1 [SRA737] + Nc1ccn([C@@H]2O[C@H](CO)[C@@H](O)C2(F)F)c(=O)n1 [Gemcitabine] (first compound max 10 µM, 7x7, partner max 0.3 µM): 0.733
Cc1c2c(nn1C)CSCc1cc(n(C)n1)CSc1cc(c3ccccc3c1)OCCCc1c(C(=O)O)n(C)c3c-2c(Cl)ccc13 [AZD5991] + C=CCn1c(=O)c2cnc(Nc3ccc(N4CCN(C)CC4)cc3)nc2n1-c1cccc(C(C)(C)O)n1 [AZD1775] (first compound max 1 µM, partner max 1 µM): 0.275

// next item, combination Emax requested
The recorded combination Emax with KMRC-1 (Kidney Carcinoma) for Cc1c2c(nn1C)CSCc1cc(n(C)n1)CSc1cc(c3ccccc3c1)OCCCc1c(C(=O)O)n(C)c3c-2c(Cl)ccc13 [AZD5991] + CC1(C)CCC(CN2CCN(c3ccc(C(=O)NS(=O)(=O)c4ccc(NCC5CCOCC5)c([N+](=O)[O-])c4)c(Oc4cnc5[nH]ccc5c4)c3)CC2)=C(c2ccc(Cl)cc2)C1 [Venetoclax] (first compound max 1 µM, 7x7, partner max 1 µM) was 0.289

---

# Tested on: HCC2998 (Colorectal Carcinoma)
# method: combination Emax (second highest fraction inhibited in the dose matrix, 72 h); higher = more inhibition; extreme values may be limits of the assay
Listing of recorded combination Emax by entry.
I'd appreciate a reply containing only the number, no unit.

Observe how each entry below is paired with its result.
COc1cccc(OCCCN)c1-c1cc(Nc2cnc(C#N)cn2)n[nH]1 [Prexasertib] + Cc1cc2ncnn2cc1Nc1ncc2c(n1)n(C1CCOCC1)c(=O)n2C [AZD7648] (first compound max 1 µM, 7x7, partner max 10 µM): 0.954
CS(=O)(=O)CCNCc1ccc(-c2ccc3ncnc(Nc4ccc(OCc5cccc(F)c5)c(Cl)c4)c3c2)o1 [Lapatinib] + C[C@@H](Oc1cc(-c2cnn(C3CCNCC3)c2)cnc1N)c1c(Cl)ccc(F)c1Cl [Crizotinib] (first compound max 10 µM, 7x7, partner max 10 µM): 0.938

// next item, combination Emax requested
Recorded combination Emax (compound CN(CCO)CC[C@H](CSc1ccccc1)Nc1ccc(S(=O)(=O)NC(=O)c2ccc(N3CCC([C@@H](O)c4ccccc4-c4ccc(Cl)cc4)CC3)cc2)cc1S(=O)(=O)C(F)(F)F [AZD4320] + CCN(CCO)CCCOc1ccc2c(Nc3cc(CC(=O)Nc4cccc(F)c4)[nH]n3)ncnc2c1 [AZD2811] (first compound max 1 µM, 7x7, partner max 1 µM) ): 0.753

---

Listing of recorded combination Emax by entry.
# Tested on: DU-145 (Prostate Carcinoma)
# method: combination Emax (second highest fraction inhibited in the dose matrix, 72 h); higher = more inhibition; extreme values may be limits of the assay
I'd appreciate a reply containing only the number, no unit.

Observe how each entry below is paired with its result.
N#Cc1cnc(Nc2cc(NC[C@H]3CNCCO3)c(C(F)(F)F)cn2)cn1 [SRA737] + Nc1ccn([C@@H]2O[C@H](CO)[C@@H](O)C2(F)F)c(=O)n1 [Gemcitabine] (first compound max 10 µM, 7x7, partner max 0.3 µM): 0.544
N#Cc1cnc(Nc2cc(NC[C@H]3CNCCO3)c(C(F)(F)F)cn2)cn1 [SRA737] + C=CCn1c(=O)c2cnc(Nc3ccc(N4CCN(C)CC4)cc3)nc2n1-c1cccc(C(C)(C)O)n1 [AZD1775] (first compound max 10 µM, partner max 1 µM): 0.263
O=C(c1cc(Cc2n[nH]c(=O)c3ccccc23)ccc1F)N1CCN(C(=O)C2CC2)CC1 [Olaparib] + COc1nnc2ccc(N3CCC(c4ccc(OCCN5CCN(C)C(=O)[C@H]5C)cc4)CC3)nn12 [AZD5153] (first compound max 10 µM, 7x7, partner max 1 µM): 0.219
C[C@@H]1COCCN1c1cc(C2([S@](C)(=N)=O)CC2)nc(-c2ccnc3[nH]ccc23)n1 [AZD6738] + C1CC(C1)(C(=O)[O-])C(=O)[O-].N.N.[Pt+2] [Carboplatin] (first compound max 10 µM, 7x7, partner max 10 µM): 0.351
CC1(C)CCC(CN2CCN(c3ccc(C(=O)NS(=O)(=O)c4ccc(NCC5CCOCC5)c([N+](=O)[O-])c4)c(Oc4cnc5[nH]ccc5c4)c3)CC2)=C(c2ccc(Cl)cc2)C1 [Venetoclax] + CS(=O)(=O)CCNCc1ccc(-c2ccc3ncnc(Nc4ccc(OCc5cccc(F)c5)c(Cl)c4)c3c2)o1 [Lapatinib] (first compound max 1 µM, 7x7, partner max 10 µM): 0.127
CN(C)CCCOc1ccc(-c2ccc3ncc4c(c3c2)n(C2CCOCC2)c(=O)n4C)cn1 [AZD0156] + CCN(CCO)CCCOc1ccc2c(Nc3cc(CC(=O)Nc4cccc(F)c4)[nH]n3)ncnc2c1 [AZD2811] (first compound max 1 µM, 7x7, partner max 1 µM): 0.134

// next item, combination Emax requested
Recorded combination Emax (compound Cc1cc2ncnn2cc1Nc1ncc2c(n1)n(C1CCOCC1)c(=O)n2C [AZD7648] + C=CCn1c(=O)c2cnc(Nc3ccc(N4CCN(C)CC4)cc3)nc2n1-c1cccc(C(C)(C)O)n1 [AZD1775] (first compound max 10 µM, partner max 1 µM) ): 0.289
